All figures here come from patent US10882844B2.

tested_target: PD-1/PD-L1 (Homo sapiens (Human))
assay_text: PD-1/PD-L1 Homogenous Time-Resolved Fluorescence (HTRF) binding assay
test_parameters: PD-1-Ig / PD-L1-His HTRF; value given as range class; read-out: Range or IC50
pIC50: −log10 of the molar value.
measurement_label: pIC50

Below, each entry is followed by its recorded pIC50 result.
{"compound": "Cc1c(COc2cc(OCc3cncc(C#N)c3)c(CN3CCCC[C@H]3C(=O)O)cc2Cl)cccc1-c1ccc2ncc(C3=CC4CCC(C3)N4)nc2c1 (stereo partly drawn)", "measurement": "8.30 to 9.00"}
{"compound": "Cc1c(COc2cc(OCc3cncc(C#N)c3)c(CN3CCCC[C@H]3C(=O)O)cc2Cl)cccc1-c1ccc2oc(C34CC(N)(C3)C4)nc2c1", "measurement": "8.00 to 8.30"}
{"compound": "Cc1c(COc2cc(OCc3cncc(C#N)c3)c(CN3CCCC[C@H]3C(=O)O)cc2Cl)cccc1-c1ccc2oc(N3C[C@@H]4C[C@H]3CN4C)nc2c1", "measurement": "8.00 to 8.30"}
{"compound": "Cc1c(COc2cc(OCc3cncc(C#N)c3)c(CN3CCCC[C@H]3C(=O)O)cc2Cl)cccc1-c1ccc2oc(C3(C)CCNCC3)nc2c1", "measurement": "8.30 to 9.00"}
{"compound": "Cc1c(COc2cc(OCc3cncc(C#N)c3)c(CN[C@](C)(CO)C(=O)O)cc2Cl)cccc1-c1ccc2oc(C3CCN(C)CC3)nc2c1", "measurement": "9.00 to 9.74"}

We now examine a further compound.
Entry Cc1c(COc2cc(OCc3cncc(C#N)c3)c(CN3CCCC[C@H]3C(=O)O)cc2Cl)cccc1-c1ccc2oc(C3CCCN(C)C3)nc2c1 (stereo partly drawn) : reported pIC50 = ? 8.30 to 9.00

###

Reported IC50 values for the following molecules.
tested_target: PD-1/PD-L1 (Homo sapiens (Human))
assay_text: PD-1/PD-L1 Homogenous Time-Resolved Fluorescence (HTRF) binding assay
test_parameters: PD-1-Ig / PD-L1-His HTRF; value given as range class; read-out: Range or IC50

Below, each entry is followed by its recorded IC50 result.
{"molecule": "Cc1c(COc2cc(OCc3cncc(C#N)c3)c(CN3CCCC[C@H]3C(=O)O)cc2Cl)cccc1-c1ccc2oc(N3CCN(C)CC3)nc2c1", "IC50": "1 to 5 nM"}
{"molecule": "Cc1c(COc2cc(OCc3cncc(C#N)c3)c(CN(C)C(C)(CO)CO)cc2Cl)cccc1-c1ccc2oc(N3CCN(C)CC3)nc2c1", "IC50": "0.18 to 0.99 nM"}
{"molecule": "Cc1c(COc2cc(OCc3cncc(C#N)c3)c(CN3CCCC[C@H]3C(=O)O)cc2Cl)cccc1-c1ccc2oc(C3CCC(C(=O)O)CC3)nc2c1 (single isomer, unassigned) [Example 1026]", "IC50": "201 to 10000 nM"}

Entry CCN(CC)C1CCC(c2nc3cc(-c4cccc(COc5cc(OCc6cncc(C#N)c6)c(CN6CCCC[C@H]6C(=O)O)cc5Cl)c4C)ccc3o2)CC1 (stereo partly drawn) : reported IC50 = ? 0.18 to 0.99 nM

Entry "Cc1c(COc2cc(OCc3cncc(C#N)c3)c(CN3CCCC[C@H]3C(=O)O)cc2Cl)cccc1-c1ccc2oc(C3CCN(CC(=O)O)CC3)nc2c1" : reported IC50 = ? 0.18 to 0.99 nM

Entry "COc1cc(OCc2cccc(-c3ccc4oc(C5CCN(c6ccccc6)CC5)nc4c3)c2C)c(Cl)cc1CN1CCCC[C@H]1C(=O)O" : reported IC50 = ? 201 to 10000 nM

###

tested_target: PD-1/PD-L1 (Homo sapiens (Human), UniProt Q9NZQ7)
Sequence (Q9NZQ7 other isoform, or with tags, fused parts or gaps): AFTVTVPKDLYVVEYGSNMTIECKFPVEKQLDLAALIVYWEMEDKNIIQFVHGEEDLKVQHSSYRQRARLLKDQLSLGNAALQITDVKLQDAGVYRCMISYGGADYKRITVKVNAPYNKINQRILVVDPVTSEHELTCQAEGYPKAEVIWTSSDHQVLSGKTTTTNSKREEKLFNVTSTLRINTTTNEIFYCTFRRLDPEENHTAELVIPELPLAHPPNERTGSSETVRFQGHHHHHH
assay_text: PD-1/PD-L1 Homogenous Time-Resolved Fluorescence (HTRF) binding assay
test_parameters: PD-1-Ig / PD-L1-His HTRF; value given as range class; read-out: Range or IC50
pIC50: −log10 of the molar value.
measurement_label: pIC50

{"compound": "Cc1c(COc2cc(OCc3cncc(C#N)c3)c(CN3CCCC[C@H]3C(=O)O)cc2Cl)cccc1-c1cc(C)c2oc(C3CCN(C)CC3)nc2c1", "measurement_label": "pIC50", "measurement": "8.30 to 9.00"}
{"compound": "CCC[C@@H](C(=O)O)N(C)Cc1cc(Cl)c(OCc2cccc(-c3ccc4oc(N5CCN(C)CC5)nc4c3)c2C)cc1OCc1cncc(C#N)c1", "measurement_label": "pIC50", "measurement": "8.30 to 9.00"}

We now examine a further compound.
Entry Cc1c(COc2cc(OCc3cncc(C#N)c3)c(CN3CCCC[C@H]3C(=O)O)cc2Cl)cccc1-c1ccc2oc(C3CC4CCC(C3)N4C)nc2c1 (stereo partly drawn) : reported pIC50 = ? 8.30 to 9.00

###

tested_target: PD-1/PD-L1 (Homo sapiens (Human))
assay_text: PD-1/PD-L1 Homogenous Time-Resolved Fluorescence (HTRF) binding assay
test_parameters: PD-1-Ig / PD-L1-His HTRF; value given as number; read-out: Range or IC50
pIC50: −log10 of the molar value.
measurement_label: pIC50

{"compound": "CCC[C@H](NCc1cc(Cl)c(OCc2cccc(-c3ccc4oc(N5CCN(C)CC5)nc4c3)c2C)cc1OCc1cncc(C#N)c1)C(=O)O [Example 2012]", "pIC50": 8.14}

1 = Cc1c(COc2cc(OCc3cncc(C#N)c3)c(CN3CCCC[C@H]3C(=O)O)cc2Cl)cccc1-c1ccc2ncc(C3=CCCNC3)nc2c1 [Example 1027]
2 = Cc1c(COc2cc(OCc3cncc(C#N)c3)c(CN(C)C(CO)CO)cc2Cl)cccc1-c1ccc2oc(N3C[C@@H]4C[C@H]3CN4C)nc2c1 [Example 2001]
3 = Cc1c(COc2cc(OCc3cncc(C#N)c3)c(CN3CCCC[C@H]3C(=O)O)cc2Cl)cccc1-c1ccc2oc(C3CCN(C)C3)nc2c1 (stereo partly shown) [Example 1008]
Sort entries by pIC50 from minimum to maximum value. Use the labels to give the ranking in the order requested. 2, 1, 3
(2: 8.42, 1: 8.77, 3: 9.17)

###

tested_target: PD-1/PD-L1 (Homo sapiens (Human), UniProt Q9NZQ7)
assay_text: PD-1/PD-L1 Homogenous Time-Resolved Fluorescence (HTRF) binding assay
test_parameters: PD-1-Ig / PD-L1-His HTRF; value given as range class; read-out: Range or IC50
measurement_label: IC50

Below, each entry is followed by its recorded IC50 result.
{"compound": "Cc1c(COc2cc(OCc3cncc(C#N)c3)c(CN3CCCC[C@H]3C(=O)O)cc2Cl)cccc1-c1ccc2ncc(N3CCN(C)CC3)nc2c1 [Example 1031]", "IC50": "5.01 to 10.1 nM"}
{"compound": "Cc1c(COc2cc(OCc3cncc(C#N)c3)c(CN3CCCC[C@H]3C(=O)O)cc2Cl)cccc1-c1ccc2oc(C3CCOCC3)nc2c1 [Example 1017]", "IC50": "0.18 to 0.99 nM"}
{"compound": "Cc1c(COc2cc(OCc3cncc(C#N)c3)c(CN3CCCC[C@H]3C(=O)O)cc2Cl)cccc1-c1ccc2nc(C3CCN(C)CC3)oc2c1 [Example 1002]", "IC50": "1 to 5 nM"}

Entry Cc1c(COc2cc(OCc3cncc(C#N)c3)c(CN3CCCC[C@H]3C(=O)O)cc2Cl)cccc1-c1ccc2oc(C3CCN(C)CC3)nc2c1 [Example 1001] : reported IC50 = ? 0.18 to 0.99 nM

Entry Cc1c(COc2cc(OCc3cncc(C#N)c3)c(CN(C)[C@@H](CO)C(=O)O)cc2Cl)cccc1-c1ccc2oc(N3CCN(C)CC3)nc2c1 [Example 2016] : reported IC50 = ? 1 to 5 nM

Entry Cc1c(COc2cc(OCc3cncc(C#N)c3)c(CN3CCCC[C@H]3C(=O)O)cc2Cl)cccc1-c1ccc2oc(C3CCNCC3)nc2c1 [Example 1004] : reported IC50 = ? 1 to 5 nM

###

tested_target: PD-1/PD-L1 (Homo sapiens (Human))
assay_text: PD-1/PD-L1 Homogenous Time-Resolved Fluorescence (HTRF) binding assay
test_parameters: PD-1-Ig / PD-L1-His HTRF; value given as range class; read-out: Range or IC50
Text: The ability of the compounds of formula (I) to bind to PD-L1 was investigated using a PD-1/PD-L1 Homogenous Time-Resolved Fluorescence (HTRF) binding assay. Homogenous Time-Resolved Fluorescence (HTRF) binding assay. The interaction of PD-1 and PD-L1 can be assessed using soluble, purified preparations of the extracellular domains of the two proteins. […]
measurement_label: IC50

{"compound": "Cc1c(COc2cc(OCc3cncc(C#N)c3)c(CN3CCCC[C@H]3C(=O)O)cc2Cl)cccc1-c1ccc2oc(C3CCC(C(=O)O)CC3)nc2c1 (single isomer, unassigned) [Example 1025]", "IC50": "0.18 to 0.99 nM"}

Entry "Cc1c(COc2cc(OCc3cncc(C#N)c3)c(CNC(CO)CO)cc2Cl)cccc1-c1ccc2oc(N3CCN(C)CC3)nc2c1" : reported IC50 = ? 1 to 5 nM

Entry "Cc1c(COc2cc(OCc3cncc(C#N)c3)c(CN3CCCC[C@H]3C(=O)O)cc2Cl)cccc1-c1ccc2ncc(C3=CCNCC3)nc2c1" : reported IC50 = ? 0.18 to 0.99 nM

Entry "Cc1c(COc2cc(OCc3cncc(C#N)c3)c(CO)cc2Cl)cccc1-c1ccc2oc(C3CCN(C)CC3)nc2c1" : reported IC50 = ? 5.01 to 10.1 nM

Entry "Cc1c(COc2cc(OCc3cncc(C#N)c3)c(CN(C)[C@@](C)(CO)C(=O)O)cc2Cl)cccc1-c1ccc2oc(N3CCN(C)CC3)nc2c1" : reported IC50 = ? 0.18 to 0.99 nM

Entry Cc1c(COc2cc(OCc3cncc(C#N)c3)c(CN3CCCC[C@H]3C(=O)O)cc2Cl)cccc1-c1ccc2oc(C3CC4CCC(C3)O4)nc2c1 (stereo partly drawn) : reported IC50 = ? 1 to 5 nM
